Measured values drawn from patent US20120172295A1 for this set.

EC50 for assorted binders
Biological target: glucagon receptor (UniProt P47871 26-477, limits assumed)
Sequence (P47871 26-477 limits assumed): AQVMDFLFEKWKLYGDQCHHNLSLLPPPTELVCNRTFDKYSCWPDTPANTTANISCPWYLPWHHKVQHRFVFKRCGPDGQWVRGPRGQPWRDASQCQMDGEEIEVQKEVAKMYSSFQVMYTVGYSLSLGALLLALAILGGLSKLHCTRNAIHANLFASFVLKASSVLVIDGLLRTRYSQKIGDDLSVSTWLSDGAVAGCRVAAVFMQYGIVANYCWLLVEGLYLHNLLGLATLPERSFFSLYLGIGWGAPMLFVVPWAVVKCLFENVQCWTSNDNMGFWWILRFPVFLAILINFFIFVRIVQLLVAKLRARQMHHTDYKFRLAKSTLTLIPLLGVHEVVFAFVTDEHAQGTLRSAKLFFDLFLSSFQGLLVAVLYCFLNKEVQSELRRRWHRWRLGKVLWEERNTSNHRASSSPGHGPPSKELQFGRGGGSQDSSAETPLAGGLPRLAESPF
Test: cell-based or functional assay
Groups on a side chain read outwards from the residue. No end group written: not given here. *: point of attachment. Stearoyl = CCCCCCCCCCCCCCCCCC(=O)*; Palmitoyl = CCCCCCCCCCCCCCCC(=O)*

| binder | EC50 / nM |
| --- | --- |
| HSQGTFTSDK(Stearoyl)SKYLDERRAKDFVC(PEG 40 kDa)WLMNT-NH2 [E16 K20-glucagon-NH2 with K10-C18 and C24-40K PEG (SEQ ID NO: 547)] | 0.84 |
| HSQGTFTSDK([Trp-Stearoyl])SKYLDERRAKDFVC(PEG 40 kDa)WLMNT-NH2 [E16 K20-glucagon-NH2 with K10-W-C18 and C24-40K PEG (SEQ ID NO: 548)] | 1.3 |
| HSQGTFTSDYSKYLDERRAKDFVQWLMNT-NH2 [E16 K20-glucagon-NH2] | 0.18 |
| HSQGTFTSDK([Trp-Palmitoyl])SKYLDERRAKDFVC(PEG 40 kDa)WLMNT-NH2 [E16 K20-glucagon-NH2 with K10-W-C16 and C24-40K PEG (SEQ ID NO: 546)] | 0.52 |
